test system: 379773-124-R-J2-PDC complex spheroids, viability % test/control; test: Anticancer human tumor 379773-124-R-J2-PDC patient-derived endometrial carcinoma cell line growth inhibition [CLK]; settings: second compound 10 µM; first compound 10 µM; hits give low values;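 note: compound exposure lasted seven days before the viability readout; 100% = DMSO vehicle control wells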
Listed next: entries and their corresponding viability, T/C.
The reply should be a number in %, with the unit left off.

Below: 3 compounds and their reported viability, T/C.
Input line: Recall and state the measured viability, T/C for CC1(C)CCC(CN2CCN(c3ccc(C(=O)NS(=O)(=O)c4ccc(NCC5CCOCC5)c([N+](=O)[O-])c4)c(Oc4cnc5[nH]ccc5c4)c3)CC2)=C(c2ccc(Cl)cc2)C1 + CN1CCN(c2cc(C(=O)Nc3cc4cc(-c5cnn(C)c5)ccc4cn3)ccn2)CC1 .
Output line: 0.16

Input line: Recall and state the measured viability, T/C for C#Cc1c(F)ccc2cc(O)cc(-c3ncc4c(N5CC6CCC(C5)N6)nc(OCC56CCCN5CC(F)C6)nc4c3F)c12 (stereo not given) + CNC(=O)c1ccc(Nc2nc(OC3CCCC3)c3c(-c4ccc5nc(C)oc5c4)c[nH]c3n2)c(OC)c1 .
Output line: 27.1

Input line: Recall and state the measured viability, T/C for COc1cccc2c1C(=O)c1c(O)c3c(c(O)c1C2=O)CC(O)(C(=O)CO)CC3OC1CC(N)C(O)C(C)O1 (stereo not given) + CN1CCN(c2cc(C(=O)Nc3cc4cc(-c5cnn(C)c5)ccc4cn3)ccn2)CC1 .
Output line: 0.12

Continuing:
Input line: Recall and state the measured viability, T/C for CC1COCCN1c1cc(C2(S(C)(=N)=O)CC2)nc(-c2ccnc3[nH]ccc23)n1 (stereo not given) + CN1CCN(c2cc(C(=O)Nc3cc4cc(-c5cnn(C)c5)ccc4cn3)ccn2)CC1 .
Output line: 0.19

Input line: Recall and state the measured viability, T/C for CC1COCCN1c1cc(C2(S(C)(=N)=O)CC2)nc(-c2ccnc3[nH]ccc23)n1 (stereo not given) + CNC(=O)c1ccc(Nc2nc(OC3CCCC3)c3c(-c4ccc5nc(C)oc5c4)c[nH]c3n2)c(OC)c1 .
Output line: 4.37

Input line: Recall and state the measured viability, T/C for COc1ccc([C@@H](O)c2cc(-c3ncnc4cc(N5CCOCC5)ccc34)c(F)cc2Cl)nn1 + CNC(=O)c1ccc(Nc2nc(OC3CCCC3)c3c(-c4ccc5nc(C)oc5c4)c[nH]c3n2)c(OC)c1 .
Output line: 4.23

Input line: Recall and state the measured viability, T/C for C=CC(=O)N1CCN(c2nc(=O)n(-c3c(C)ccnc3C(C)C)c3nc(-c4c(O)cccc4F)c(F)cc23)C(C)C1 (stereo not given) + CN1CCN(c2cc(C(=O)Nc3cc4cc(-c5cnn(C)c5)ccc4cn3)ccn2)CC1 .
Output line: 0.5

Input line: Recall and state the measured viability, T/C for CC(CO)NC(=O)c1cc(-c2ccc(Cl)cc2)nn(-c2cnn(C)c2)c1=O (stereo not given) + CNC(=O)c1ccc(Nc2nc(OC3CCCC3)c3c(-c4ccc5nc(C)oc5c4)c[nH]c3n2)c(OC)c1 .
Output line: 22.7

Input line: Recall and state the measured viability, T/C for O=c1[nH]cc(F)c(=O)[nH]1 + CN1CCN(c2cc(C(=O)Nc3cc4cc(-c5cnn(C)c5)ccc4cn3)ccn2)CC1 .
Output line: 0.68

Input line: Recall and state the measured viability, T/C for Nc1ccccc1NC(=O)c1ccc(CNC(=O)OCc2cccnc2)cc1 + CN1CCN(c2cc(C(=O)Nc3cc4cc(-c5cnn(C)c5)ccc4cn3)ccn2)CC1 .
Output line: 0.15

Source: PubChem BioAssay AID2060604
